# Lookup of reported Crabgrass, Large plant response rating keyed by entry
test system: large crabgrass; experiment: Test B pre-/postemergence herbicide test; assay type: in vivo, Digitaria sanguinalis; settings: postemergence, 500 g ai/ha; scale 0 to 100, 0 is no effect, 100 is complete control

- compound: "CCn1nc(C(C)(C)C)cc1C(=O)Nc1cncc(C(=O)N2CC=CC2)n1"
  Crabgrass, Large plant response rating: 0
- compound: "C=CCNC(=O)c1cccc(NC(=O)c2cc(C(C)(C)C)nn2C)n1"
  Crabgrass, Large plant response rating: 60
- compound: "CCc1nn(C(C)(C)C)nc1C(=O)Nc1cccc(C(=O)N(C)C)c1"
  Crabgrass, Large plant response rating: 70
- compound: "CCn1nc(C(C)(C)C)cc1C(=O)Nc1ccnc(C(=O)N2CC=CC2)c1"
  Crabgrass, Large plant response rating: 10
- compound: "CCc1nn(C(C)(C)C)nc1C(=O)Nc1cc(C(=O)N2CC=CC2)ccc1F"
  Crabgrass, Large plant response rating: 10
- compound: "C#CCNC(=O)c1ccc(F)c(NC(=O)c2cc(C(C)(C)C)nn2CC)n1"
  Crabgrass, Large plant response rating: 10
- compound: "C#CCNC(=O)c1cccc(NC(=O)c2sc(C(C)(C)C)nc2CC)c1"
  Crabgrass, Large plant response rating: 20
- compound: "CCn1nc(C(C)(C)C)cc1C(=O)Nc1cc(OC(F)(F)F)ccc1F"
  Crabgrass, Large plant response rating: 60
- compound: "CCN(CC)C(=O)c1ccc(F)c(NC(=O)C2CC(C(C)(C)C)=NN2CC)c1 (racemic)"
  Crabgrass, Large plant response rating: 10
- compound: "Cc1nn(C(C)(C)C)nc1C(=O)Nc1cc(C(=O)N(C)C)ccc1F"
  Crabgrass, Large plant response rating: 10
- compound: "CCNC(=O)c1ccc(F)c(NC(=O)c2cc(C3(C)CC3)nn2CC)c1"
  Crabgrass, Large plant response rating: 30
- compound: "CCNC(=O)c1cc(NC(=O)c2cc(C(C)(C)C)nn2CC)ccn1"
  Crabgrass, Large plant response rating: 10

* * *

tested on: barnyardgrass; assay: Test A pre-/postemergence herbicide test; type: in vivo, Echinochloa crus-galli; settings: Postemergence, 2000 g ai/ha; 0 to 100 scale, 0 no effect, 100 complete control
# Lookup of reported Plant response rating, Barnyardgrass keyed by entry

- molecule: "CCNC(=O)c1ccc(F)c(NC(=O)C2CC(C(C)(C)C)=NN2CC)c1 (racemic) [Compound 269]"
  Plant response rating, Barnyardgrass: 80
- molecule: "C#CCNC(=O)c1cncc(NC(=O)c2cc(C(C)(C)C)nn2CC)n1 [Compound 289]"
  Plant response rating, Barnyardgrass: 40
- molecule: "CCNC(=O)c1cccc(NC(=O)c2nn(C3CCCC3)nc2CC)c1 [Compound 356]"
  Plant response rating, Barnyardgrass: 40
- molecule: "CCN(CC)C(=O)c1cccc(NC(=O)c2sc(C(C)(C)C)nc2C)c1 [Compound 199]"
  Plant response rating, Barnyardgrass: 80

* * *

test system: morningglory; test: Test B pre-/postemergence herbicide test; format: in vivo, Ipomoea coccinea; conditions: preemergence, 125 g ai/ha; 0 to 100 scale, 0 is no effect, 100 is complete control

- compound: "CCn1nc(C(C)(C)C)cc1C(=O)Nc1cccc2c1CCN(C1CCCC1)C2=O [Compound 66]"
  Plant response rating, Morningglory: 0
- compound: "CCOC(=O)c1cc(NC(=O)c2cc(C(C)(C)C)nn2CC)ccc1OCC [Compound 95]"
  Plant response rating, Morningglory: 10
- compound: "CCOC(=O)c1cc(NC(=O)c2cc(C(C)(C)C)nn2CC)ccc1F [Compound 89]"
  Plant response rating, Morningglory: 0

These entries and their values trace back to patent US20060069132A1.
